Please provide measured pKi for the entries that follow.
- measuredOn: UniProtKB P08575
- Sequence (P08575 whole entry): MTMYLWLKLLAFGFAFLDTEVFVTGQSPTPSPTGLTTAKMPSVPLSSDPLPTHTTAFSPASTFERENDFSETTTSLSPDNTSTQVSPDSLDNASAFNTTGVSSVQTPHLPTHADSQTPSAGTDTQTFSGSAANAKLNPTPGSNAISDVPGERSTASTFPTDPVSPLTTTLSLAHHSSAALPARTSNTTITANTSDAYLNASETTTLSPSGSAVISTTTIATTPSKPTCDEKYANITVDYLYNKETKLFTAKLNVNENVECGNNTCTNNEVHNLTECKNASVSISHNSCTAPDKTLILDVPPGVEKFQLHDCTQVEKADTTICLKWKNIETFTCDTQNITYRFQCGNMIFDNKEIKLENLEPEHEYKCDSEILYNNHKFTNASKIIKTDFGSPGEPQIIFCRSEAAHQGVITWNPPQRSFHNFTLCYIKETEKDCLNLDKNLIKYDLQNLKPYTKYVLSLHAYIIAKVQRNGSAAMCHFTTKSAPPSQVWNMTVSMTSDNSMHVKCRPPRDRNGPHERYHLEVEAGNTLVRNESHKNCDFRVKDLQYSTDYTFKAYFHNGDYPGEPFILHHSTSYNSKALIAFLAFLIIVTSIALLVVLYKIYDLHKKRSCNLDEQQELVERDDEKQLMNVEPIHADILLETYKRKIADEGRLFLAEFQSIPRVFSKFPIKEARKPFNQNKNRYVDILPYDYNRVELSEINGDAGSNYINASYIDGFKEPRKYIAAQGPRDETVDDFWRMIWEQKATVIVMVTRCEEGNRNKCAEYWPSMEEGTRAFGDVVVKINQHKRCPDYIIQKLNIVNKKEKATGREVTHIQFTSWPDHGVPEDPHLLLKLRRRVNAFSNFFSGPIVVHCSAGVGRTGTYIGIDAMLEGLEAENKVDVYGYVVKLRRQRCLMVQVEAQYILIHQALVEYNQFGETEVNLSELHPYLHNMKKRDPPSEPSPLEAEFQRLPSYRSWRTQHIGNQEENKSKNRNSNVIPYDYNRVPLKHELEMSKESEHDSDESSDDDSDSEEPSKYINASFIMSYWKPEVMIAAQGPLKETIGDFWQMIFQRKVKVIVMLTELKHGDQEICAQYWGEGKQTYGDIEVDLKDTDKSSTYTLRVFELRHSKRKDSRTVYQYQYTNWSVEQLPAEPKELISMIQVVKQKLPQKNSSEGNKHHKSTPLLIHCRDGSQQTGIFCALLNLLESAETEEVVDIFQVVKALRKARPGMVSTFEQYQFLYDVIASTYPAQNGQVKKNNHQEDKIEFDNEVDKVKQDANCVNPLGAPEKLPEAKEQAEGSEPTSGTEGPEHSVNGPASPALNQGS
Answers are plain numbers, as −log10 of the molar value.

Example entries begin here.
smilesString: O=C(O)C(=O)Nc1sc2c(c1C(=O)O)CCCC2
pKi: 4.39
--
smilesString: O=C(O)C(=O)Nc1ccc2cc[nH]c2c1C(=O)O
pKi: 4.70
--
smilesString: O=C(O)C(=O)Nc1sc2c(c1C(=O)O)CCO[C@H]2COC1=NS(=O)(=O)c2ccccc21
pKi: 3.31

Task item: Please give the measured pKi for this compound: O=C(O)C(=O)Nc1ccsc1C(=O)O
Reply: 3.59

* * *

The reader will find pKi measurements below, all made with Tyrosine-protein phosphatase non-receptor type 6 (Homo sapiens, UniProt P29350).
Sequence (P29350 whole entry): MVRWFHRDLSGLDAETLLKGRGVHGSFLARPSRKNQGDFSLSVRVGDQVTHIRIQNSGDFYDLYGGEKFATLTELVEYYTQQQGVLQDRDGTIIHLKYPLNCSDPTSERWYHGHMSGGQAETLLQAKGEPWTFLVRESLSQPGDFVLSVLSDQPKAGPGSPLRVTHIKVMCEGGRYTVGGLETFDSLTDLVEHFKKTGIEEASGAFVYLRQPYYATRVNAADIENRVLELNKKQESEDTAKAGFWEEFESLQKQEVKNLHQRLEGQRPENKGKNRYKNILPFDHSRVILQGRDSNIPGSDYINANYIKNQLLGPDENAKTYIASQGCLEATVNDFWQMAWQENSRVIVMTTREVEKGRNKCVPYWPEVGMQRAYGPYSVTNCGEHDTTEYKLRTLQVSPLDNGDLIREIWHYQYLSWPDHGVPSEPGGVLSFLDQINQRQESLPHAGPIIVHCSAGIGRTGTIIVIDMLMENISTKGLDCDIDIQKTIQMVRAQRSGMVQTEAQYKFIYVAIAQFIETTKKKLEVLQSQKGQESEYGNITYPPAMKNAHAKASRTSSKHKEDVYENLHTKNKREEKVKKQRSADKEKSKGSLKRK
One number for each entry, as −log10 of the molar value.

As a guide, the following entries are already answered.
smilesString: O=C(O)C(=O)Nc1sc2c(c1C(=O)O)CCO[C@H]2COC1=NS(=O)(=O)c2ccccc21
pKi: 3.54
--
smilesString: O=C(O)C(=O)Nc1ccccc1C(=O)O
pKi: 3.29
--
smilesString: O=C(O)C(=O)Nc1ccc(I)cc1C(=O)O
pKi: 4.10

Now for a further compound.
Task item: What does the record list as pKi for O=C(O)C(=O)Nc1ccc2cc[nH]c2c1C(=O)O ?
Reply: 4.55
